tested-target: T1, human neurotensin receptor type 1 (human, UniProt P30989 1-418)
T1 construct: whole, on cells; Used as cell membrane homogenates (0.5 ug/well), not intact cells; also called hNTR-1; Human NTR-1
T1 sequence (P30989 whole entry): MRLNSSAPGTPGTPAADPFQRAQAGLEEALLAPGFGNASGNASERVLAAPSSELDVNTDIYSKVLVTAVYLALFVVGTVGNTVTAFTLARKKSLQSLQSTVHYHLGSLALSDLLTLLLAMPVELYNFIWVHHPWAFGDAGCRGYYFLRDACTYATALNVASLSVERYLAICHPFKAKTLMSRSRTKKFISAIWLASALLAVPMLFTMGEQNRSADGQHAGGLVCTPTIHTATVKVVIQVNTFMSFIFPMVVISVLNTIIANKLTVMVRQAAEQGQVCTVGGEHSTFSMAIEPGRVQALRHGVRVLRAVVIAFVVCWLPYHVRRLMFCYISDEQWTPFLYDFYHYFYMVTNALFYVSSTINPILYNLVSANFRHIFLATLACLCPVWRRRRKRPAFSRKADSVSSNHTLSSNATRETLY
protocol-details: competition with [3H]-neurotensin on membranes of CHO cells expressing human NTR-1; Ki from mean IC50 by Cheng-Prusoff
Bridge positions count the residues as written; N and C are the ends. Square brackets hold non-standard residues; d marks the D form. Ends that are not written are not given here. * marks the point of attachment. Tle = CC(C)(C)[C@H](N)C(=O)O; Pip = O=C(O)[C@@H]1CCCCN1; Propionyl = CCC(=O)*; Sar = CNCC(=O)O
observable: Ki
Report field: quantity (unit follows the number).

Below are worked cases with known answers.
1) RKPY[Tle]L (X stands for Tle) [[Lys9, Tle12]NT(8-13)] | 1.7 nM
2) RRPW[Tle]L (X stands for Tle) [[Trp11, Tle12]NT(8-13)] | 3.1 nM
3) KRPW[Tle]L (X stands for Tle) [[Lys8, Trp11, Tle12]NT(8-13)] | 13.8 nM

Task: Provide measured Ki value, entry: Propionyl-[dC]M[Pip]RLR[Sar]CRRPY[Tle]L-OH (disulfide 1-8; SMILES CCC(=O)N[C@@H]1CSSC[C@@H](C(=O)N[C@@H](CCCNC(=N)N)C(=O)N[C@@H](CCCNC(=N)N)C(=O)N2CCC[C@H]2C(=O)N[C@@H](Cc2ccc(O)cc2)C(=O)N[C@H](C(=O)N[C@@H](CC(C)C)C(=O)O)C(C)(C)C)NC(=O)CN(C)C(=O)[C@H](CCCNC(=N)N)NC(=O)[C@H](CC(C)C)NC(=O)[C@H](CCCNC(=N)N)NC(=O)[C@@H]2CCCCN2C(=O)[C@H](CCSC)NC1=O) [compound XV, SEQ ID NO: 9-[Tle12]NT(8-13)]
Output: 0.4 nM
